The origin of these recorded values is BindingDB's records for doi:10.1016/j.bmc.2009.08.051.

// values below are IC50; system is DNA polymerase beta (Rattus norvegicus)

CC12CC(=O)C(=O)C=C1c1cccc(O)c1C(=O)O2 (stereo not drawn) [dehydroaltenusin derivative, 20] :: 89 µM
COc1cc(O)c2c(c1)C1=CC(=O)C=CC1(C)OC2=O (stereo not drawn) [dehydroaltenusin derivative, 31] :: > 200 µM

Turning to the following compound.
# input # assay system DNA polymerase beta (Rattus norvegicus): give IC50 of CC12C=CC(=O)C=C1c1cccc(O)c1C(=O)O2 (stereo not drawn) [dehydroaltenusin derivative, 32]
# output > 200 µM

* * *

# experimentalTarget: DNA polymerase (Bos taurus, UniProt A0AAA9TD94)
recordedMetric: log10(IC50) (log10 of the value in nM)
Log scale reminder: IC50 in nM, then log10 taken.

Consider the reported log10(IC50) for these compounds:
CCCOc1cc(O)c2c(c1)C1=CC(=O)C(=O)CC1(C)OC2=O (stereo not given) [dehydroaltenusin derivative, 14] :: 2.26
CC12CC(=O)C(=O)C=C1c1cc(O)cc(O)c1C(=O)O2 (stereo not given) [desmethyldehydroaltenusin, 2] :: 2.95
COc1cc(O)c2c(c1)C1=CC(=O)C(=O)CC1(C)OC2=O (stereo not given) [dehydroaltenusin] :: 2.83

# input Supply log10(IC50) value. Item: CCCCCCCCCCCCOc1cc(O)c2c(c1)C1=CC(=O)C(=O)CC1(C)OC2=O (stereo not given) [dehydroaltenusin derivative, 16]
# output 1.78

# input Supply log10(IC50) value. Item: CC12CC(=O)C(=O)C=C1c1cccc(O)c1C(=O)O2 (stereo not given) [dehydroaltenusin derivative, 20]
# output 2.38

# input Supply log10(IC50) value. Item: CCCCCCOc1cc(O)c2c(c1)C1=CC(=O)C(=O)CC1(C)OC2=O (stereo not given) [dehydroaltenusin derivative, 15]
# output 1.95

* * *

# experimentalTarget: DNA polymerase (Bos taurus, UniProt A0AAA9TD94)
pIC50: −log10 of the molar value.
Collected pIC50 values appear next to each entry.

Consider the reported pIC50 for these molecules:
CC12C=CC(=O)C=C1c1cccc(O)c1C(=O)O2 (centres undefined) [dehydroaltenusin derivative, 32] :: < 3.70
COc1cc(O)c2c(=O)oc3cc(OCc4ccccc4)c(OCc4ccccc4)cc3c2c1 [dehydroaltenusin derivative, 25] :: < 3.70
COc1cc(O)c2c(=O)oc3cc(O)c(O)cc3c2c1 [dehydroaltenusin derivative, 26] :: < 3.70

Turning to the following molecule.
# input Supply pIC50 value. Item: COc1cc(O)c2c(c1)C1=CC(=O)C=CC1(C)OC2=O (centres undefined) [dehydroaltenusin derivative, 31]
# output < 3.70
